Each record here notes measured log10 IC50.
- assayed.target: HLA-A*68:02
- procedure.summary: IEDB peptide-MHC binding, purified MHC/competitive/radioactivity; bounds were set here for any values at or beyond the usual limits of such assays
- measurement.parameters: source organism: Vaccinia virus WR
A difference of one corresponds to tenfold IC50; all values are log10 with IC50 in nM.

- EQRRSTIFDI: 3.01
- TVKNVDIIDL: 2.92
- NITHTNITTL: 3.69
- NASKTINALV: 1.32
- RVKQWVMDTL: 2.19
- CTEETKRNI: 3.59
- CQCTVQEFI: 3.24
- IMSMMNITRL: 2.08
- TLIQYRQQL: 2.86
- DAIKSNNHLT: 2.89

query: Which log10 IC50 is reported for this sequence? NTISGNIYSA
result: -0.72

query: Record: IVNNFITKEI
result: 3.12

query: What about NTIDKSSPL ?
result: 0.76

query: Lookup CTNDIYCDEI
result: 2.28

query: And the next one, HIKTIAVSV ?
result: 2.58

query: Query IVVPVIDRL next
result: 1.54
